# TESTED_ON: T1, SIRPα V1-his (ACRO, Cat #SIA-H5225) (human, UniProt P78324 31-370)
# T1 construct: not shown: His tag
# TEST_DETAILS: SPR (Biacore), antibody captured by anti-Fc on CM5, 50 nM SIRPα V1-his injected, 1:1 model
QUANTITY_NAME: koff (s⁻¹)
Write it as a number; the unit s⁻¹ goes unstated.

Below, each entry is followed by its recorded koff result.
# BINDER, MEAS_VALUE
data = [
    ("Z9 (antibody, IgG1, V domains shown, also called humanized variant Z9) VH: QVQLQESGPGLVKPSQTLSLTCTVSGFSLTGYGVNWIRQPPGKGLEWIGIIWGDGSTDYNSALKSRVTISKDTSKNQVFLKLSSVTADDTARYYCARAGKMDYWGQGTTVTVSS VL: DIVLTQSPASLAVSPGQRATITCRASESVDSYGNSFMHWYQQKPGQPPKPLIYLASNLESGVPARFSGSGSRTDFTLTINPVEANDAANYYCQQNNEYPWTFGGGTKVEIK", 0.0016),
    ("Z6 (antibody, IgG1, V domains shown, also called humanized variant Z6) VH: QVQLQESGPGLVKPSQTLSLTCTVSGFSLTGYGVNWIRQPPGKGLEWIGIIWGDGSTDYNSALKSRVTISKDTSKNQVFLKLSSVTAADTAVYYCARAGKMDYWGQGTTVTVSS VL: DIVLTQSPASLAVSPGQRATITCRASESVDSYGNSFMHWYQQKPGQPPKPLIYLASNLESGVPARFSGSGSRTDFTLTINPVEANDAANYYCQQNNEYPWTFGGGTKVEIK", 0.00165),
    ("Z1 (antibody, IgG1, V domains shown, also called humanized variant Z1) VH: QVQLQESGPGLVKPSQTLSLTCTVSGFSLTGYGVNWIRQPPGKGLEWIGIIWGDGSTDYNSALKSRVTISVDTSKNQVFLKLSSVTAADTAVYYCARAGKMDYWGQGTTVTVSS VL: DIVLTQSPASLAVSPGQRATITCRASESVDSYGNSFMHWYQQKPGQPPKPLIYLASNLESGVPARFSGSGSGTDFTLTINPVEANDAANYYCQQNNEYPWTFGGGTKVEIK", 0.00269),
]

Kindly consider the entry below.
Fill in: koff of Z8 (antibody, IgG1, V domains shown, also called humanized variant Z8) VH: QVQLQESGPGLVKPSQTLSLTCTVSGFSLTGYGVNWIRQPPGKGLEWIGIIWGDGSTDYNSALKSRVTISKDTSKNQVFLKLSSVTADDTARYYCARAGKMDYWGQGTTVTVSS VL: DIVLTQSPASLAVSPGQRATITCRASESVDSYGNSFMHWYQQKPGQPPKLLIYLASNLESGVPARFSGSGSRTDFTLTINPVEANDAANYYCQQNNEYPWTFGGGTKVEIK is ___
0.0194
